biological target: insulin (Homo sapiens, UniProt P01308); construct: purchased Roche 1376497; assay: Kinetic analysis using surface plasmon resonance (Biacore T200), immobilized insulin; format: binding; settings: Table 7; MGSSHHHHHHGSS-[Y#####]-A
Sequence (P01308 25-54 limits assumed): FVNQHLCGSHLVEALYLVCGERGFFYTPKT
Sequence (P01308 90-110 limits assumed): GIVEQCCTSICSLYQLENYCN
So I've got a bunch of substances here, and I need their kd values.
Record the value in s⁻¹, omitting the unit from your answer.

Data request: Looking for the measured kd of Y00358: insulin binding Y variant from Ylib002Naive.I, SEQ ID NO:142 (LAEAKEAAIAELDSKGVGAAKIKWIQDAKSVETVQFLKQAILAELPA; Engineered insulin binding Y variant) , can you help?
Data returned: 0.0023

Data request: Now this one: Y00330: insulin binding Y variant from Ylib002Naive.I, SEQ ID NO:136 (LAEAKEAAIAELDSKGVGAKYIKMIQMAKHVETVQYMKQAILASLPA; Engineered insulin binding Y variant)
Data returned: 0.0037

Data request: Now this one: Y00299: insulin binding Y variant from Ylib002Naive.I, SEQ ID NO:132 (LAEAKEAAIAELDSKGVGAYQIKFIQVAKTVEQVQILKQAILADLPA; Engineered insulin binding Y variant)
Data returned: 0.002

Data request: Now this one: Y00356a: insulin binding Y variant from Ylib002Naive.I, SEQ ID NO:141 (LAEAKEAAIAELDSKGVGAKYIKMIQHAHYVEVVQWLKQAILAHLPA; Engineered insulin binding Y variant)
Data returned: 0.0061

---

So I've got a bunch of substances here, and I need their kd values.
molecular target: IL-6 (Homo sapiens); construct: purchased R&D Systems 206-IL-200/CF; test: Kinetic analysis using surface plasmon resonance (Biacore T200), immobilized IL-6; type: binding; conditions: Table 9, mutation study 5; MGSSHHHHHHGSS-[Y#####]-A
Record the value in s⁻¹, omitting the unit from your answer.

Data request: # returns recorded kd (system: IL-6 (Homo sapiens)) for Y02703: IL-6 binding Y variant, Y02444 with K15Y Q26E, SEQ ID NO:87 (LAEAKEAAIAELDSYGVGAVEIKQIEEALLVEIVQLLKQAILAVLPA; Engineered IL-6 binding Y variant)
Data returned: 0.0025

Data request: Now this one: Y02700: IL-6 binding Y variant, Y02415 with I9L, SEQ ID NO:84 (LAEAKEAALAELDSKGVGAGDIKDIQDALLVEIVQLLKQAILAVLPA; Engineered IL-6 binding Y variant)
Data returned: 0.0025

Data request: Now this one: Y02701: IL-6 binding Y variant, Y02415 with K15Y, SEQ ID NO:85 (LAEAKEAAIAELDSYGVGAGDIKDIQDALLVEIVQLLKQAILAVLPA; Engineered IL-6 binding Y variant)
Data returned: 0.0036

Data request: Now this one: Y02698: IL-6 binding Y variant, Y02444 with K15Y, SEQ ID NO:82 (LAEAKEAAIAELDSYGVGAVEIKQIQEALLVEIVQLLKQAILAVLPA; Engineered IL-6 binding Y variant)
Data returned: 0.0033

Data request: Now this one: Y02702: IL-6 binding Y variant, Y02415 with Q26E, SEQ ID NO:86 (LAEAKEAAIAELDSKGVGAGDIKDIEDALLVEIVQLLKQAILAVLPA; Engineered IL-6 binding Y variant)
Data returned: 0.007

Data request: Now this one: Y02697: IL-6 binding Y variant, Y02444 with I9L, SEQ ID NO:81 (LAEAKEAALAELDSKGVGAVEIKQIQEALLVEIVQLLKQAILAVLPA; Engineered IL-6 binding Y variant)
Data returned: 0.009

Data request: Now this one: Y02699: IL-6 binding Y variant, Y02444 with Q26E, SEQ ID NO:83 (LAEAKEAAIAELDSKGVGAVEIKQIEEALLVEIVQLLKQAILAVLPA; Engineered IL-6 binding Y variant)
Data returned: 0.0029

---

molecular target: C4; test: Kinetic analysis using surface plasmon resonance (Biacore T200), immobilized C4; type: binding; details: Table 7; MGSSHHHHHHGSS-[Y#####]-A
OBSERVABLE: log10 kd (log10 of the value in s⁻¹)
Please keep in mind that the values are log10 of kd expressed in s⁻¹.

Data request: Looking for the measured log10 kd of Y02358: C4 binding Y variant from Ylib002Naive.I, SEQ ID NO:39 (LAEAKEAAIAELDSKGVGADDIKLIQDAPSVEGVQEIKQFILAQLPA; Engineered C4 binding Y variant) , can you help?
Data returned: -2.85

Data request: Now this one: Y00792: C4 binding Y variant from Ylib002Naive.I, SEQ ID NO:32 (LAEAKEAAIAELDSKGVGADLIKKIQQASSVEGVQFWKQEILAQLPA; Engineered C4 binding Y variant)
Data returned: -2.77

Data request: Now this one: Y02330: C4 binding Y variant from Ylib002Naive.I, SEQ ID NO:37 (LAEAKEAAIAELDSKGVGAELIKKIQHAESVEGVQFWKQEILAYLPA; Engineered C4 binding Y variant)
Data returned: -2.34

Data request: Now this one: Y02337: C4 binding Y variant from Ylib002Naive.I, SEQ ID NO:38 (LAEAKEAAIAELDSKGVGAAEIKWIQHASTVEGVQGRKQQILAELPA; Engineered C4 binding Y variant)
Data returned: -0.09

Data request: Now this one: Y02303: C4 binding Y variant from Ylib002Naive.I, SEQ ID NO:34 (LAEAKEAAIAELDSKGVGAEEIKWIQNAWSVEGVQIMKQQILAELPA; Engineered C4 binding Y variant)
Data returned: -0.68

Data request: Now this one: Y02309: C4 binding Y variant from Ylib002Naive.I, SEQ ID NO:35 (LAEAKEAAIAELDSKGVGADLIKKIQKAESVEGVQFWKQEILATLPA; Engineered C4 binding Y variant)
Data returned: -2.60

---

So I've got a bunch of substances here, and I need their ka values.
target: IL-6 (Homo sapiens, UniProt P05231); construct: purchased R&D Systems 206-IL-200/CF; assay: Kinetic analysis using surface plasmon resonance (Biacore T200), immobilized IL-6; type: binding; details: Table 7; MGSSHHHHHHGSS-[Y#####]-A
Sequence (P05231 30-212): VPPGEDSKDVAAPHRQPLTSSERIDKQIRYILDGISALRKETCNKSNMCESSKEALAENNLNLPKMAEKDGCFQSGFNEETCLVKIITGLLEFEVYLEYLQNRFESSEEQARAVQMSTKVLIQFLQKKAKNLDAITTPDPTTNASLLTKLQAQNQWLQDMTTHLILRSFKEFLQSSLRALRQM

Data request: Looking for the measured ka of Y02447: IL-6 binding Y variant from Ylib002Naive.I, SEQ ID NO:76 (LAEAKEAAIAELDSKGVGAHGIKEIQDAILVEIVQLLKQAILAALPA; Engineered IL-6 binding Y variant) , can you help?
Data returned: 11000 M⁻¹ s⁻¹

Data request: Now this one: Y02495: IL-6 binding Y variant from Ylib002Naive.I, SEQ ID NO:79 (LAEAKEAAIAELDSKGVGAEEIKEIQGAMLVEIVQLLKQAILAVLPA; Engineered IL-6 binding Y variant)
Data returned: 7100 M⁻¹ s⁻¹

Data request: Now this one: Y02415: IL-6 binding Y variant from Ylib002Naive.I, SEQ ID NO:74 (LAEAKEAAIAELDSKGVGAGDIKDIQDALLVEIVQLLKQAILAVLPA; Engineered IL-6 binding Y variant)
Data returned: 9700 M⁻¹ s⁻¹

Data request: Now this one: Y02444: IL-6 binding Y variant from Ylib002Naive.I, SEQ ID NO:75 (LAEAKEAAIAELDSKGVGAVEIKQIQEALLVEIVQLLKQAILAVLPA; Engineered IL-6 binding Y variant)
Data returned: 90000 M⁻¹ s⁻¹

Data request: Now this one: Y02374: IL-6 binding Y variant from Ylib002Naive.I, SEQ ID NO:72 (LAEAKEAAIAELDSKGVGAAEIKRIQAAELVEIVQLLKQAILAVLPA; Engineered IL-6 binding Y variant)
Data returned: 14000 M⁻¹ s⁻¹

Data request: Now this one: Y02465: IL-6 binding Y variant from Ylib002Naive.I, SEQ ID NO:78 (LAEAKEAAIAELDSKGVGANHIKAIQHAQFVEIVQLLKQAILAVLPA; Engineered IL-6 binding Y variant)
Data returned: 7500 M⁻¹ s⁻¹

---

target: insulin (Homo sapiens, UniProt P01308); construct: purchased Roche 1376497; assay: Kinetic analysis using surface plasmon resonance (Biacore T200), immobilized insulin; type: binding; settings: Table 3, mutation study 1; MGSSHHHHHHGSS-[Y#####]
OBSERVABLE: Kd (nM)
Record the value in nM, omitting the unit from your answer.

Data request: Looking for the measured Kd of Y00276: insulin binding Y variant, Y00032 with A43K, SEQ ID NO:123 (LAEAKEAAIAELDSKGVGAYQKSFIELAKSVEHVELLKEAILKDLP; Engineered insulin binding Y variant) , can you help?
Data returned: 76

Data request: Now this one: Y00274: insulin binding Y variant, Y00032 with E35Q, SEQ ID NO:121 (LAEAKEAAIAELDSKGVGAYQKSFIELAKSVEHVQLLKEAILADLP; Engineered insulin binding Y variant)
Data returned: 56

Data request: Now this one: Y00263: insulin binding Y variant, Y00032 with D13K, SEQ ID NO:110 (LAEAKEAAIAELKSKGVGAYQKSFIELAKSVEHVELLKEAILADLP; Engineered insulin binding Y variant)
Data returned: 130

Data request: Now this one: Y00272: insulin binding Y variant, Y00032 with A28G, SEQ ID NO:119 (LAEAKEAAIAELDSKGVGAYQKSFIELGKSVEHVELLKEAILADLP; Engineered insulin binding Y variant)
Data returned: 110

Data request: Now this one: Y00270: insulin binding Y variant, Y00032 with K22I + S23K, SEQ ID NO:117 (LAEAKEAAIAELDSKGVGAYQIKFIELAKSVEHVELLKEAILADLP; Engineered insulin binding Y variant)
Data returned: 77
